# TARGET_ENTITY: UniProt:Q05397
# Sequence (Q05397 whole entry): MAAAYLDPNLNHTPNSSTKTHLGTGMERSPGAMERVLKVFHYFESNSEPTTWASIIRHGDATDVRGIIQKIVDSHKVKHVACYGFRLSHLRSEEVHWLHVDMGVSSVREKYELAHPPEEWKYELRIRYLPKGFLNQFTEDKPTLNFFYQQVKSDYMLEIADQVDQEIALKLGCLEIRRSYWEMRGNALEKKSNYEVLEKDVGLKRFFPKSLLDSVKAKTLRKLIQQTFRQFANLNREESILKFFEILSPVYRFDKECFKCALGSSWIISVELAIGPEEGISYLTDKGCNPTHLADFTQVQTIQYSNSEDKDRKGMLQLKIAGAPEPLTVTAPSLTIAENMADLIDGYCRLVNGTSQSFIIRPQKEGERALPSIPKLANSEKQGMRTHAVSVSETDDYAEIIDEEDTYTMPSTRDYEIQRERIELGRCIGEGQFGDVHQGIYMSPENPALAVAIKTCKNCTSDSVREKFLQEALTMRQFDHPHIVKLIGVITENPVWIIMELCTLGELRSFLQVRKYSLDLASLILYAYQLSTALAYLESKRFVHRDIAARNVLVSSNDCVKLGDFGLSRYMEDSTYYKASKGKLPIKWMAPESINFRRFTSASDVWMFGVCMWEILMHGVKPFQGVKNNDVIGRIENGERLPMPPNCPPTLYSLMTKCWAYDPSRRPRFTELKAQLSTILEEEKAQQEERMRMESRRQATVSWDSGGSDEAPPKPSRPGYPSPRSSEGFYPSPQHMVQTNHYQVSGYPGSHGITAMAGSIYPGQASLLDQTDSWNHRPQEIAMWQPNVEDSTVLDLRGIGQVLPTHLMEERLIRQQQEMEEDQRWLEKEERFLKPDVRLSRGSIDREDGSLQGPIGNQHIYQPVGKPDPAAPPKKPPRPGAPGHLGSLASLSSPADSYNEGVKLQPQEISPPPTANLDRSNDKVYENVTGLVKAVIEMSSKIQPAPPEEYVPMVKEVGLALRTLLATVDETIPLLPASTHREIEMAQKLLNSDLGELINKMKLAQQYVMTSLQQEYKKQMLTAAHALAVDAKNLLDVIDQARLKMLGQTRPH
# MEASUREMENT_SETUP: read-out: FAK IC50
pIC50: −log10 of the molar value.

COMPOUND	TARGET_ENTITY	pIC50
CN1Cc2ccc(Nc3nc4c(C#Cc5ccccc5N(C)S(C)(=O)=O)cccn4n3)cc2C1 [Example 193]	UniProt:Q05397	5.52
CN1CCC(c2ccc(Nc3nc4c(NCc5ccccc5S(C)(=O)=O)cccn4n3)cc2)CC1 [Example 140]	UniProt:Q05397	6.91
Fc1ccc(C(F)(F)F)cc1-c1cccn2nc(Nc3ccc4c(c3)CCNCC4)nc12 [Example 270]	UniProt:Q05397	5.19
CS(=O)(=O)c1ccc(-c2cccn3nc(Nc4ccc(CN5CCS(=O)(=O)CC5)cc4)nc23)cc1 [Example 114]	UniProt:Q05397	5.83
Cc1ccc(-c2cccn3nc(Nc4ccc5c(c4)CCNCC5)nc23)c(OCC(C)C)c1 [Example 296]	UniProt:Q05397	5.52
CS(=O)(=O)c1ccc(-c2cccn3nc(Nc4cccc(N5CCC(N6CCOCC6)CC5)c4)nc23)cc1 [Example 57]	UniProt:Q05397	5.93
COc1ncccc1-c1cccn2nc(Nc3ccc(C4CCN(CC(=O)N(C)C)CC4)cc3)nc12 [Example 273]	UniProt:Q05397	6.00
CN(c1ncccc1Nc1cccn2nc(Nc3ccc(OCCN4CCCC4)cc3)nc12)S(C)(=O)=O [Example 132]	UniProt:Q05397	5.52
CN(c1cccc(-c2cccn3nc(Nc4ccc(OCCN5CCCC5)cc4)nc23)c1)S(C)(=O)=O [Example 128]	UniProt:Q05397	5.64
COc1ccc(CNc2cccn3nc(Nc4ccc(N5CCN(C)CC5)cc4)nc23)cc1 [Example 391]	UniProt:Q05397	5.00
CN1CCN(c2cccc(Nc3nc4c(OCc5ccccc5C#N)cccn4n3)c2)CC1 [Example 263]	UniProt:Q05397	5.52
c1cc(-c2ccncc2)c2nc(Nc3ccc(N4CCOCC4)cc3)nn2c1 [Example 11]	UniProt:Q05397	5.19
CN1CCN(c2ccc(Nc3nc4c(-c5cccc(N(C)S(C)(=O)=O)c5)cccn4n3)cc2)CC1 [Example 127]	UniProt:Q05397	5.50
CS(=O)(=O)c1ccc(-c2cccn3nc(Nc4cccc(N5CCNCC5)c4)nc23)cc1 [Example 181]	UniProt:Q05397	5.95
CCOc1ccc(C(F)(F)F)cc1-c1cccn2nc(Nc3ccc4c(c3)CCNCC4)nc12 [Example 319]	UniProt:Q05397	5.88
CN1CCN(c2ccc(Nc3nc4c(-c5ccc(N(C)S(C)(=O)=O)cc5)cccn4n3)cc2)CC1 [Example 62]	UniProt:Q05397	6.00
COc1ccc(-c2cccn3nc(Nc4ccc(N5CCOCC5)cc4)nc23)cn1 [Example 8]	UniProt:Q05397	5.83
CN1CCC(c2ccc(Nc3nc4c(Nc5ccccc5CN(C)S(C)(=O)=O)cccn4n3)cc2)CC1 [Example 174]	UniProt:Q05397	5.00
CN1CCN(c2ccc(Nc3nc4c(Nc5cccnc5N(C)S(C)(=O)=O)cccn4n3)cc2)CC1 [Example 131]	UniProt:Q05397	5.86
CN1CCC(c2cccc(Nc3nc4c(-c5ccc(S(C)(=O)=O)cc5)cccn4n3)c2)CC1 [Example 61]	UniProt:Q05397	6.58
COc1ccc(Nc2nc3c(-c4cn[nH]c4)cccn3n2)cc1 [Example 39]	UniProt:Q05397	5.63
COc1cccc(CNc2cccn3nc(Nc4ccc(C)nc4)nc23)c1 [Example 405]	UniProt:Q05397	5.00
CN(c1ccccc1CNc1cccn2nc(Nc3ccc4c(c3)CCC(N3CCOCC3)CC4)nc12)S(C)(=O)=O (centres unmarked) [Example 200]	UniProt:Q05397	7.74
CN(C)C(=O)CN1CCc2ccc(Nc3nc4c(-c5cc(C(F)F)ccc5OCC(F)F)cccn4n3)cc2CC1 [Example 385]	UniProt:Q05397	5.95
COc1ccccc1-c1cccn2nc(Nc3ccc(N4CCN(C)CC4)cc3)nc12 [Example 55]	UniProt:Q05397	5.52
CCOc1ccccc1-c1cccn2nc(Nc3ccc4c(c3)CCN(CC(=O)N(C)C)CC4)nc12 [Example 246]	UniProt:Q05397	5.00
COc1ccccc1CNc1cccn2nc(Nc3ccc(C)nc3)nc12 [Example 403]	UniProt:Q05397	5.73
COc1cccc(CNc2cccn3nc(Nc4cccc(N5CCN(C)CC5)c4)nc23)c1 [Example 392]	UniProt:Q05397	5.00
COc1ccc(C(F)(F)F)cc1-c1cccn2nc(Nc3cccc(C4CCN(CC(=O)N(C)C)CC4)c3)nc12 [Example 410]	UniProt:Q05397	6.18
COc1cccc(CNc2cccn3nc(Nc4ccnc(C)c4)nc23)c1 [Example 397]	UniProt:Q05397	5.00
COc1cccc(CNc2cccn3nc(Nc4ccc(N5CCN(C)CC5)cc4)nc23)c1 [Example 390]	UniProt:Q05397	5.00
COc1ccc(CNc2cccn3nc(Nc4cccc(N5CCN(C)CC5)c4)nc23)cc1 [Example 393]	UniProt:Q05397	5.00
